Give measured log10(IC50) for each item. Keep answers brief.
Biological target: TF-VIIa (Homo sapiens, UniProt P08709)
Construct: 2nM recombinant human factor VIIa; purchased American Diagnostica, Greenwich CT; host or cells: soluble TF made in house in E. coli
Sequence (P08709 213-466 limits assumed): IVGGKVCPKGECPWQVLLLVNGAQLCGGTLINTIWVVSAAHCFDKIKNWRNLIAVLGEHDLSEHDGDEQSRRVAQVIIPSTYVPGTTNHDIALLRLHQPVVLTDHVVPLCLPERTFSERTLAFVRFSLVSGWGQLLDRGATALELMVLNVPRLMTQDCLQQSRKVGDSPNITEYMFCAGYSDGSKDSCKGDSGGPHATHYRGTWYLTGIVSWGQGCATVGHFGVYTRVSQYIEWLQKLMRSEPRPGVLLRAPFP
Sequence (P08709 61-212 limits assumed): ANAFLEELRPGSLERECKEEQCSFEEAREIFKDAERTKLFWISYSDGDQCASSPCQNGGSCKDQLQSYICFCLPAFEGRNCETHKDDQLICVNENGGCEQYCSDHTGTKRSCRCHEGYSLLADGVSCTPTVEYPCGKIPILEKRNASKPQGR
Sequence (P13726 33-251 partner limits assumed): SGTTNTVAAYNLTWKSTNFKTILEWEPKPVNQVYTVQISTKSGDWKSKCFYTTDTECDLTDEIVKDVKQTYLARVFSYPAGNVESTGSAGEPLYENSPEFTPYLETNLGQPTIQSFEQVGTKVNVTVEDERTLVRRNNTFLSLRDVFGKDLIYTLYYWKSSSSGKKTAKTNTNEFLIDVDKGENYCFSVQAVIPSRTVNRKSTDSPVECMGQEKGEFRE
Test: TF-VIIa Assay
Type: biochemical
Conditions: cells given as a plain number (IC50); read-out: IC50 or % Inhibition TF-VIIa (30 µM)
For clarity, the numbers are log10 values of IC50 expressed in nM.

Worked examples, 4 molecules total:
N=C(N)c1ccc(CNC(=O)Cn2c(-c3cccc(Cl)c3)c(Cl)nc(NCCc3ccccc3)c2=O)cc1 ... 3.30
N=C(N)c1ccc(CNC(=O)Cn2c(-c3ccccc3)cnc(NC(=O)Nc3cc(Cl)cc(Cl)c3)c2=O)cc1 ... 3.62
N=C(N)c1ccc(CNC(=O)Cn2c(-c3ccccc3)c(Cl)nc(NCc3ccc(C(=N)N)cc3)c2=O)cc1 ... 2.81
CC(C)CCNc1nc(Cl)c(-c2ccccc2)n(CC(=O)NCc2ccc(C(=N)N)cc2)c1=O [1517-40] ... 3.08

// input: 4 molecules below; output: log10(IC50) for each
1. CC(C)Nc1nc(Cl)c(-c2cc(N)ccc2F)n(CC(=O)NCc2ccc(C(=N)N)cc2F)c1=O
2. N=C(N)c1ccc(CNC(=O)Cn2c(-c3ccccc3)c(Cl)nc(NCc3ccccc3)c2=O)cc1
3. N=C(N)c1ccc(CNC(=O)Cn2c(-c3ccccc3)c(Cl)nc(NC3CCS(=O)(=O)C3)c2=O)cc1 (stereo not drawn) [1512-19]
4. Cc1cccc(-c2c(Cl)nc(NCCc3ccccc3)c(=O)n2CC(=O)NCc2ccc(C(=N)N)cc2)c1

[1.48, 2.89, 4.16, 3.00]

// input: 7 molecules below; output: log10(IC50) for each
1. N=C(N)c1ccc(CNC(=O)Cn2c(-c3ccccc3)c(Cl)nc(NCCN3CCOCC3)c2=O)cc1
2. CCCNc1nc(Cl)c(-c2ccccc2)n(CC(=O)NCc2ccc(C(=N)N)cc2)c1=O
3. N=C(N)c1ccc(CNC(=O)Cn2c(-c3ccc(Cl)cc3)c(Cl)nc(NCCc3ccccc3)c2=O)cc1
4. CC(C)(C)CCNc1nc(Cl)c(-c2ccccc2)n(CC(=O)NCc2ccc(C(=N)N)cc2)c1=O [1517-41]
5. N=C(N)NCCC[C@H](NC(=O)Cn1c(-c2ccccc2)c(Cl)nc(NCCc2ccccc2)c1=O)C(=O)c1nccs1
6. COCCNc1nc(Cl)c(-c2cccc(N)c2)n(CC(=O)NCc2ccc(C(=N)N)cc2)c1=O
7. N=C(N)c1ccc(CNC(=O)Cn2c(-c3ccccc3)cnc(NC(=O)Nc3ccccc3)c2=O)cc1

[3.90, 2.60, 3.95, 3.34, 2.30, 2.15, 3.05]
